Provenance of the data: patent US9957247B2

Target: SpSecA (Streptococcus pyogenes)
Assay type: cell-based
Conditions: read-out: IC50, Ion Channel activity, SpSecA
The following compounds are shown together with reported IC50 values.
Kindly provide the numeric value in nM only, without the unit symbol.

These recorded examples may help you get a feel for the data.
CSc1nc(Cl)cc(Sc2nnc(-c3cc(C(F)(F)F)cc(C(F)(F)F)c3)[nH]2)n1 ... 700
CSc1nc(Sc2nnc(-c3cc(C(F)(F)F)cc(C(F)(F)F)c3)[nH]2)cc(Sc2nnc(-c3cc(C(F)(F)F)cc(C(F)(F)F)c3)[nH]2)n1 ... 1000
Oc1ccc2c(c1)Oc1cc(O)ccc1C2C1CCCC1 ... 3000

**Q:** // query IC50 value for entry CCCCCCC1c2ccc(O)cc2Oc2cc(O)ccc21
**A:** 1900

====

Molecular target: BsSecA (Bacillus subtilis)
Sequence (P28366 whole entry): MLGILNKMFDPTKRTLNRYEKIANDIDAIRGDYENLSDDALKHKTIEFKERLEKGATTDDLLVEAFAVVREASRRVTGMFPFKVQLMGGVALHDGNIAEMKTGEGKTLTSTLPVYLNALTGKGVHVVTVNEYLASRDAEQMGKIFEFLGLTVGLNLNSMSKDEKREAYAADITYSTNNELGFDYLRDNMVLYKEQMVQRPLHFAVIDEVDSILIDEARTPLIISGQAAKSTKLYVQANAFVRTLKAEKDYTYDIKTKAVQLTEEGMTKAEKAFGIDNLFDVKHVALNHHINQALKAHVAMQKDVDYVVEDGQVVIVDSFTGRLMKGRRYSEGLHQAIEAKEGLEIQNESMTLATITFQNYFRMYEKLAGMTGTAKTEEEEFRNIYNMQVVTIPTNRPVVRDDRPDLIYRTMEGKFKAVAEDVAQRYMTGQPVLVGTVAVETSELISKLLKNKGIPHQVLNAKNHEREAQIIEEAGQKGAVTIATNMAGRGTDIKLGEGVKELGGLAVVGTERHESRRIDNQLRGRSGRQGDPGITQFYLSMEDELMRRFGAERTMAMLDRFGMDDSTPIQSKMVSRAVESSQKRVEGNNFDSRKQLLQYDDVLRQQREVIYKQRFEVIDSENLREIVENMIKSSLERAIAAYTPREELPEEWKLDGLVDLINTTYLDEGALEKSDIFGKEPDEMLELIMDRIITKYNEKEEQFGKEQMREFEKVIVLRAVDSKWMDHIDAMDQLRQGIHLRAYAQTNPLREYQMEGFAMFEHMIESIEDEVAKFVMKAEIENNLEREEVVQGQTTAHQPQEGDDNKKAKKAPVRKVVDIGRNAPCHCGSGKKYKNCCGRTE
Assay: cell-based
Set-up: species or system B. subtilis
Conditions: Ion channel, IC50, BsSecA, Table 5
measured.property: IC50
Include the unit after the number when you answer.

Examples with answers:
CCCCCCC1c2ccc(O)cc2Oc2cc(O)ccc21 [Compound 22c, 9-Hexyl-9H-xanthene-3,6-diol] ... 2500 nM
Oc1ccc2c(c1)Oc1cc(O)ccc1C2C1CCCC1 [Compound 22a, 9-Cyclopentyl-9H-xanthene-3,6-diol] ... 3000 nM
CC(C)C1c2cc(I)c(O)c(I)c2Oc2c1cc(I)c(O)c2I [Compound 23d] ... 2500 nM
CC(C)C1c2ccc(O)cc2Oc2cc(O)ccc21 [Compound 22b, 9-Isopropyl-9H-xanthene-3,6-diol] ... 4900 nM
Oc1c(I)cc2c(c1I)Oc1c(cc(I)c(O)c1I)C2C1CCCC1 [Compound 23b] ... 3800 nM

**Q:** Need IC50, item Oc1cc2c(cc1I)C(C1CCCC1)c1cc(I)c(O)c(I)c1O2 (centres unmarked) [Compound 23c]
**A:** 2800 nM

**Q:** Consider the compound shown here: Oc1ccc2c(c1)Oc1cc(O)ccc1C2C1CCCCC1 [Compound 22d, 9-Cyclohexyl-9H-xanthene-3,6-diol] What is its recorded IC50?
**A:** 6600 nM

**Q:** # get_value(readout='IC50', item= Oc1c(Br)cc2c(c1Br)Oc1c(cc(Br)c(O)c1Br)C2C1CCCC1 [Compound 23a] )
**A:** 2400 nM

====

Target: UniProtKB P10408
Conditions: read-out: IC50, in vitro protein translocation of proOmpA; Example 1
Sequence (P0AG99 whole entry): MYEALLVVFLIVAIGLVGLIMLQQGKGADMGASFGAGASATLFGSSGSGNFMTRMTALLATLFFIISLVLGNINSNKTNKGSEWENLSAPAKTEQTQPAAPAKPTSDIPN
Sequence (P10408 whole entry): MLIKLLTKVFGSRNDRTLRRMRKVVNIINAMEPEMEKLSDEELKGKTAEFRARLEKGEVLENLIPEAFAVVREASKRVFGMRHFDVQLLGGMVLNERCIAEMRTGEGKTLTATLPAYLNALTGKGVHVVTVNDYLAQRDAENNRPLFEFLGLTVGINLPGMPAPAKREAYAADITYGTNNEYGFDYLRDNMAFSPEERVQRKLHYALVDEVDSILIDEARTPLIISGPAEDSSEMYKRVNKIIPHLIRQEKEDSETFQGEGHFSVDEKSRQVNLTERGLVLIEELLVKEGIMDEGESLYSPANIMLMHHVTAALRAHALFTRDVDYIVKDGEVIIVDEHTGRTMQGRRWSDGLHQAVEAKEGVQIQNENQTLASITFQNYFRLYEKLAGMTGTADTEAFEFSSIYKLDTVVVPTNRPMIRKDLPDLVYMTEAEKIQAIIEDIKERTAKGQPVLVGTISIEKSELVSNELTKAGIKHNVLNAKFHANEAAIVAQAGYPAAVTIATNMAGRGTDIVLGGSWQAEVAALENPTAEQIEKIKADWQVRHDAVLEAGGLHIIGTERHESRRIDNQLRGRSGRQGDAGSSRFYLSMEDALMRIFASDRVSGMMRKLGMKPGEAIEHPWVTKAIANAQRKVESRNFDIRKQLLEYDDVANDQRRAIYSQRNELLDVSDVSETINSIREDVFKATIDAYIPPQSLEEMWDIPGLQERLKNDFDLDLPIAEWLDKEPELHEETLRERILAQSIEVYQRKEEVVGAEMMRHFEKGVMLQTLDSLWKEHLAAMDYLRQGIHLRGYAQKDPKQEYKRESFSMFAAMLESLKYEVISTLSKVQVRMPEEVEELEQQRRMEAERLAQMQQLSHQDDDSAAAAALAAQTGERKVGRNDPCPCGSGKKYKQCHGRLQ
Sequence (P0AGA2 whole entry, further chain): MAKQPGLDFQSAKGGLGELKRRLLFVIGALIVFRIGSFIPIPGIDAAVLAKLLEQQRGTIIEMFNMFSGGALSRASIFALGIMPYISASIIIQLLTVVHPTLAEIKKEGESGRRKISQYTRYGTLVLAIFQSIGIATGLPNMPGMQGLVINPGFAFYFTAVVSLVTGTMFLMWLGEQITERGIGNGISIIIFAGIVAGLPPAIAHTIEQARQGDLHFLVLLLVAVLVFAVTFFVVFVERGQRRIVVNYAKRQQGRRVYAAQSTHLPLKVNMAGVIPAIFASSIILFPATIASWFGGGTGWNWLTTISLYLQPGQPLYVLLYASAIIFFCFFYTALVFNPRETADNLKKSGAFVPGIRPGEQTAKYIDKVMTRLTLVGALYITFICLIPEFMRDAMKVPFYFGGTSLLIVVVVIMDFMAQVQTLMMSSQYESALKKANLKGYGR
Sequence (P0AG96 whole entry, further chain): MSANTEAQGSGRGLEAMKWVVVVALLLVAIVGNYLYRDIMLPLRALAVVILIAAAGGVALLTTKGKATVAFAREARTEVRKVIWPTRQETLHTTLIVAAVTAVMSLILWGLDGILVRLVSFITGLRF
measured.property: IC50
Kindly format the answer as number then unit.

**Q:** Fill in the blank: the reported IC50 of O.O=C([O-])c1ccccc1-c1c2cc(I)c(=O)c(I)c-2oc2c(I)c([O-])c(I)cc12.[Na+].[Na+] is ____.
**A:** 4 µM

====

Target: UniProtKB P10408
Experiment: cell-based
Sequence (P10408 whole entry): as the sequence (P10408 whole entry) above
measured.property: pIC50
Give only the number. pIC50 is defined as minus log10 of concentration in molar units.

Some solved cases for reference:
CC(C)C1c2ccc(O)cc2Oc2cc(O)ccc21 [Compound 22b, 9-Isopropyl-9H-xanthene-3,6-diol] ... 5.37
Oc1ccc2c(c1)Oc1cc(O)ccc1C2C1CCCC1 ... 5.47
CCCCCCC1c2ccc(O)cc2Oc2cc(O)ccc21 ... 5.64
CC(C)C1c2cc(I)c(O)c(I)c2Oc2c1cc(I)c(O)c2I [Compound 23d] ... 5.55
CSc1nc(Sc2nnc(-c3cc(C(F)(F)F)cc(C(F)(F)F)c3)[nH]2)cc(Sc2nnc(-c3cc(C(F)(F)F)cc(C(F)(F)F)c3)[nH]2)n1 ... 5.62

**Q:** Request the reported pIC50 associated with Oc1c(I)cc2c(c1I)Oc1c(cc(I)c(O)c1I)C2C1CCCC1 [Compound 23b]
**A:** 5.60

**Q:** May I ask what pIC50 has been recorded for Oc1ccc2c(c1)Oc1cc(O)ccc1C2C1CCCCC1 [Compound 22d, 9-Cyclohexyl-9H-xanthene-3,6-diol] ?
**A:** 5.55

**Q:** For Oc1c(Br)cc2c(c1Br)Oc1c(cc(Br)c(O)c1Br)C2C1CCCC1 [Compound 23a] , what is its reported pIC50?
**A:** 5.64

**Q:** Need pIC50 of Oc1cc2c(cc1I)C(C1CCCC1)c1cc(I)c(O)c(I)c1O2 (stereo not drawn) [Compound 23c] , thanks.
**A:** 5.66

====

Examples of molecules with documented pIC50 follow.
Target: SaSecA2 (Staphylococcus aureus, UniProt Q2FUW6)
Sequence (Q2FUW6 whole entry): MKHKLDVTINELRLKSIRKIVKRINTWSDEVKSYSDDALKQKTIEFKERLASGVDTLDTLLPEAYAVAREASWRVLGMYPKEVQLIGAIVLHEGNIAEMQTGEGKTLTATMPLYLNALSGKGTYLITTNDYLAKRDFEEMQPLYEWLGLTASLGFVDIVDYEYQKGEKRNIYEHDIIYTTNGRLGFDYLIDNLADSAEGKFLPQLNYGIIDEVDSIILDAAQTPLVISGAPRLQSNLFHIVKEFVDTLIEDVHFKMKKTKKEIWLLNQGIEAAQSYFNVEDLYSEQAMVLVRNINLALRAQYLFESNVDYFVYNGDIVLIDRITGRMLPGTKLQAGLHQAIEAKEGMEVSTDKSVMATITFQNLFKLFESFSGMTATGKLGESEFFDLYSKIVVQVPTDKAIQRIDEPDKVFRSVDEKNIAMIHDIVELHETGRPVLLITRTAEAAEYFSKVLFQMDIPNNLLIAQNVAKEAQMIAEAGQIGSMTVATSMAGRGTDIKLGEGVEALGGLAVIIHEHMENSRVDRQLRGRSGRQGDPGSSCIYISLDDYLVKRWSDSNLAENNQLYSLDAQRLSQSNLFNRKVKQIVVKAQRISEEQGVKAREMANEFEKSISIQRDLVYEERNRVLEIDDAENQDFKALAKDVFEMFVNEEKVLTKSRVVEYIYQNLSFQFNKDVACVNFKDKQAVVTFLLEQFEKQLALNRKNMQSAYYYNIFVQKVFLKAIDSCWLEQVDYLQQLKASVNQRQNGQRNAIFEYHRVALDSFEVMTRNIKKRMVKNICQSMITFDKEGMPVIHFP
Assay: ATPase activity assay (malachite green), SaSecA2
Conditions: IC50, Intrinsic ATPase, SaSecA2, Table 1
In simple prose, pIC50 is minus the logarithm base ten of a concentration in moles per litre.

Worked set:
O=C(O)c1c(Cl)c(Cl)c(Cl)c(Cl)c1-c1c2cc(I)c(=O)c(I)c-2oc2c(I)c(O)c(I)cc12 [RB, Rose Bengal] ... 6.00
CSc1nc(Cl)cc(Sc2nnc(-c3cc(C(F)(F)F)cc(C(F)(F)F)c3)[nH]2)n1 [SCA-107] ... 4.30
Oc1ccc2c(c1)Oc1cc(O)ccc1C2C1CCCC1 [SCA-41] ... 5.22

Proceeding to the next molecule to report its pIC50.
**Q:** So what does the record say about pIC50 for CSc1nc(Sc2nnc(-c3cc(C(F)(F)F)cc(C(F)(F)F)c3)[nH]2)cc(Sc2nnc(-c3cc(C(F)(F)F)cc(C(F)(F)F)c3)[nH]2)n1 [SCA-21] ?
**A:** 4.37

====

Molecular target: PaSecA (Pseudomonas aeruginosa, UniProt Q9LCT3)
Assay: cell-based
Assay type: cell-based
Details: Rose Bengal IC50, channel activity, PaSecA, BA13, BA13 (first value of BA13/Re-13)
measured.property: IC50 (µM)
Provide only the numeric value, understood in µM.

**Q:** IC50 lookup needed for O=C(O)c1c(Cl)c(Cl)c(Cl)c(Cl)c1-c1c2cc(I)c(=O)c(I)c-2oc2c(I)c(O)c(I)cc12 , thanks.
**A:** 5.1

====

Molecular target: BaSecA1 (Bacillus anthracis, UniProt Q81X26)
Sequence (Q81X26 whole entry, looked up): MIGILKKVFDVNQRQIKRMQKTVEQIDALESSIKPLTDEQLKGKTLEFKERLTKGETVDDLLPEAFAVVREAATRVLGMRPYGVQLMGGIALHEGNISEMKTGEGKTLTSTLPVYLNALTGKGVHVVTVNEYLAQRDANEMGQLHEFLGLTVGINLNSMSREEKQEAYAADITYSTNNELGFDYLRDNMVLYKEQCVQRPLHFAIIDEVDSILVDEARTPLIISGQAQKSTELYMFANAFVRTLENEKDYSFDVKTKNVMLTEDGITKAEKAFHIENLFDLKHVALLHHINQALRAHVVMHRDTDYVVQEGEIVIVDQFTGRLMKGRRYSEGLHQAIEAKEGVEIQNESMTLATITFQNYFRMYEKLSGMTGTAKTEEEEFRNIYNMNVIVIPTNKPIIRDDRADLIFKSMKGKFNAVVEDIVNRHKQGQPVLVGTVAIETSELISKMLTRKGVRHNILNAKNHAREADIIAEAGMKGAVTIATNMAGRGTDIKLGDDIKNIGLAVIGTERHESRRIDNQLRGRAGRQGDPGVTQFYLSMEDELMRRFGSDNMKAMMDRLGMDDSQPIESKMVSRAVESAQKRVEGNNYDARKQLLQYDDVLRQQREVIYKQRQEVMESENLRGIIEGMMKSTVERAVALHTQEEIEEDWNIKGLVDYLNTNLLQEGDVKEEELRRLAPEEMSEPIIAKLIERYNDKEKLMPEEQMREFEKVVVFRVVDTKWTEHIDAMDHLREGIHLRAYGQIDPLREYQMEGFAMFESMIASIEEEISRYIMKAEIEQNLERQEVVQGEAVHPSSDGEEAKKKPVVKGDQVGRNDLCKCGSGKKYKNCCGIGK
Test: cell-based
Conditions: read-out: IC50, Ion Channel activity, BGaSecA 1
measured.property: IC50 (nM)
Value expressed in nM; do not type the unit.

**Q:** Quick one: IC50 of CSc1nc(Cl)cc(Sc2nnc(-c3cc(C(F)(F)F)cc(C(F)(F)F)c3)[nH]2)n1 ?
**A:** 700

====

Target: UniProtKB P10408
Details: read-out: IC50, Translocation ATPase, EcSecA; Table 1
measured.property: pIC50
Please report pIC50 as the negative decimal logarithm of the molar concentration, giving only the number.

**Q:** Quick one: pIC50 for CSc1nc(Cl)cc(Sc2nnc(-c3cc(C(F)(F)F)cc(C(F)(F)F)c3)[nH]2)n1 ?
**A:** 4.55

====

Molecular target: EcSecA N68 (Escherichia coli)
Sequence (P10408 1-610): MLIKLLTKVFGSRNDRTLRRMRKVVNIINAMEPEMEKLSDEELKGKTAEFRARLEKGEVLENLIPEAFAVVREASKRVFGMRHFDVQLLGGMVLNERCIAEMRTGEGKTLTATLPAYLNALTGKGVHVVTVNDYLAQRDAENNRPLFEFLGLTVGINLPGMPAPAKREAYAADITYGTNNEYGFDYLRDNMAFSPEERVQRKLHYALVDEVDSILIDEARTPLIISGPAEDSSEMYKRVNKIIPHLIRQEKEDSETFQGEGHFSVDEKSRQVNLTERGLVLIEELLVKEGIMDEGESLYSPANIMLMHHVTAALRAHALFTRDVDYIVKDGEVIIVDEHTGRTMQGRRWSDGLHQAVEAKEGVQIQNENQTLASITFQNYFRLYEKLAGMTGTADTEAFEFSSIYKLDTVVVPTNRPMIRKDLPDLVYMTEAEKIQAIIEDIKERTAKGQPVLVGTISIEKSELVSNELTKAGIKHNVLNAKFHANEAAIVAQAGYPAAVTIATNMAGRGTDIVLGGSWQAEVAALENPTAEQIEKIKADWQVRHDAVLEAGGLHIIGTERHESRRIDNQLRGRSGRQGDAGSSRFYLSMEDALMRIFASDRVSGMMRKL
Experiment: biochemical
Type: biochemical, E. coli
Conditions: read-out: IC50, EcN68 SecA ATPase (unregulated ATPase)
measured.property: IC50 (µM)
Only the number, expressed in µM, is required.

**Q:** IC50 for O=C(O)c1ccccc1-c1c2ccc(=O)c(I)c-2oc2c(I)c(O)ccc12 [DI, Diiodofluorescein, reference compound] ?
**A:** 30

====

Biological target: SaSecA1 (Staphylococcus aureus, UniProt O06446)
Settings: read-out: IC50, ATPase activity, SaSecA1; Table 7
measured.property: pIC50
pIC50 is a log-scale quantity: -log10 of the concentration expressed in molar.

**Q:** What value of pIC50 has been recorded for this entry: CCCCCCC1c2ccc(O)cc2Oc2cc(O)ccc21 [SCA-50]
**A:** 4.70

====

Target: F1F0-proton ATPase (Escherichia coli, UniProt P0ABB0+P0ABB4)
Test: Proton ATPase activity, reconstituted liposomes
Type: biochemical, E. coli
Details: Example 1; read-out: IC50 against F1F0-proton ATPase
pIC50: −log10 of the molar value.
measured.property: pIC50

**Q:** Test system F1F0-proton ATPase (Escherichia coli, UniProt P0ABB0+P0ABB4); read-out pIC50; what value for O.O=C([O-])c1ccccc1-c1c2cc(I)c(=O)c(I)c-2oc2c(I)c([O-])c(I)cc12.[Na+].[Na+] ?
**A:** ~4.52

====

Target: BsSecA (Bacillus subtilis)
Assay: cell-based
Set-up: species or system B. subtilis
Settings: Table 1; read-out: IC50, Ion Channel activity, BsSecA
measured.property: IC50 (nM)
Report only the number, with the unit nM understood.

**Q:** Look up IC50: CSc1nc(Cl)cc(Sc2nnc(-c3cc(C(F)(F)F)cc(C(F)(F)F)c3)[nH]2)n1 [SCA-107]
**A:** 2100

====

System: SecA (S. pyogenes, S. aureus, and E. coli)
Test: Oocyte assay, inhibition of SecA
Details: read-out: IC50, inhibiting SecA in the oocyte assay
measured.property: pIC50
Please report pIC50 as the negative decimal logarithm of the molar concentration, giving only the number.

**Q:** Please provide the recorded pIC50 for O=C(O)c1c(Cl)c(Cl)c(Cl)c(Cl)c1-c1c2cc(I)c(=O)c(I)c-2oc2c(I)c(O)c(I)cc12 [RB, Rose Bengal] , tested on SecA (S. pyogenes, S. aureus, and E. coli).
**A:** 6.40
